- System: rumen fluid
- Method Description: in vitro ruminal fermentation, 22 muramidases, 12 h (Example 4)
- Set-up: species or system cow
- Condition Description: summed carbon in VFA after 12 h; muramidase 0.20 mg/40 ml
Items are presented alongside their recorded Carbon in VFA.
Please respond with the number in mmol/L and leave the unit unwritten.

Known results for molecules:
[Q] Requested read-out: Carbon in VFA. Entry: T: mature muramidase polypeptide from Chaetomium sp., novel MUR polypeptide; T in Example 4 (protein, Chaetomium sp) YHIKGSIVNCRAGPGTSHAVKKTYAKGQNVQISCQTTGNIIHGNNIWDLTQDGCYVADYYVKTGTDGFVTDKCSSSGNSGVSGTSTSSVGGAAGPMKDDYPYKSNCEGTDPWLYFKCQCTSFVAWRINERLGIKFHNQYKGVNWGDANTWDDAAKRTGVTVNKTPKPGCVAQTDKGTWGHVAWVAAVGDETVTIEEYNYGGKERYGTRTVPKGEFDYIHVKN
[A] 277

[Q] Item under review: V: mature muramidase polypeptide from Acremonium exiguum, novel MUR polypeptide; V in Example 4 (protein, listed as Acremonium exiguum) RSIPIVARAYPGLDDVQSRNAEAALGEIRAEGINPARQACLAVISTALQESELYIYANPAVPESMNYPHDREGGDQDSVGMFQQRPEWYPDIAADMSASGSTRQFLAAMLQVPGWQTMEVSALDQEVQKAEAGNLYGQRIPLATQVCDAAGF . Reported Carbon in VFA?
[A] 252

[Q] Quick one: Carbon in VFA of W: mature muramidase polypeptide from Chaetomium sp., novel MUR polypeptide; W in Example 4 (protein, Chaetomium sp) YPITGDPLNCRSGPGTSYAIKKSYTKGADIKISCQTEGTSVNGNSIWDKTQDGCYVADFYVKTGVDGYVTKKCSGGGGDTGGGSGGIPGPVKDDYPYKSSCGGVDPWNYYKCQCTSFVAWRINKRLGIKFHNQYKGTNWGNANTWDNAAKKTGVKVNSTPKPGAIAQSNAGNYGHVAWVTAVNGNKVTIEEYNWGKREGYGKRTVDKSAFNYIHVKA ?
[A] 250

Continuing:
[Q] For the molecule S: mature muramidase polypeptide from Aspergffius sp., novel MUR polypeptide; S in Example 4 (protein, listed as Aspergillus sp.) YPVKADVHCRSGPGTSYSIVKTYSTGTQISVSCQAAGTDVDGDQLWDKTSDGCYVSDYYVSTGSSNYVTSHCPTEYAIKTDVNCRSGPGTNYGIVKTYNQGVMVSLNCQASGTDVDGDSLWDKTSDGCYVSDYYVATGSSSYVTSACSGSSSSGGGGSSSSGNLPSLDSTQSAHARAIIGEAKSQNVGRQGCLAGIATALVESSMLMYANSNVAASLSYPHDAVGSDYDSVGLFQQRVSIYTNLAADMDAAQSAGQFFDEMKKVSGWETMNVGDLCQEVQRSAYPDRYAGEVSTAESICSAGGL , what Carbon in VFA is on record?
[A] 254
